PROTOCOL DETAILS: CHI Log D procedure
Type: physicochemical
CONDITION CONTEXT: pH 7.4
Parameter CHI Log D: see the listing below.
Field format: numeric only.

>>> recorded_result("CC(=O)N1CCC[C@]12CC=CCCCC1(CCCC=CCCCCCC[C@@](C)(C(=O)N[C@@H](Cc3ccccc3)C(=O)N[C@@H](Cc3csc4ccccc34)C(=O)N[C@@H](CCC(N)=O)C(N)=O)NC(=O)[C@H](CC(N)=O)NC(=O)[C@H](Cc3ccccc3)NC(=O)[C@H](C)NC(=O)[C@H](C)NC(=O)[C@H](CC(=O)O)NC(=O)[C@H](CC(=O)O)NC1=O)NC(=O)[C@H](CCC(C)C)NC(=O)[C@H](CC(=O)O)NC2=O (stereo partly drawn) [I-547]")
2.45
>>> recorded_result("CC(=O)N1CCC[C@]12CC=CCCCC1(CCCC=CCCCCOC(=O)N3CC[C@@](C(=O)N[C@@H](Cc4ccsc4)C(=O)N[C@@H](Cc4csc5ccccc45)C(=O)N[C@@H](CCC(N)=O)C(=O)N[C@@H](C)C(N)=O)(C3)NC(=O)[C@H](CC(N)=O)NC(=O)[C@H](Cc3ccccc3)NC(=O)[C@H](C)NC(=O)[C@H](C)NC(=O)[C@H](CC(=O)O)NC(=O)[C@H](CC(=O)O)NC1=O)NC(=O)[C@H](CC(C)(C)C)NC(=O)[C@H](CC(=O)O)NC2=O (stereo partly drawn) [I-825]")
2.028

Let's switch to this compound now.
Q: Bench note: what CHI Log D did CC(=O)N1CCC[C@]12CC=CCCCC1(CCCC=CCCCCCC[C@@](C)(C(=O)N[C@@H](Cc3ccccc3)C(=O)N[C@@H](Cc3csc4ccccc34)C(=O)N[C@@H](Cc3c[nH]cn3)C(N)=O)NC(=O)[C@H](CC(N)=O)NC(=O)[C@H](Cc3ccccc3)NC(=O)[C@H](C)NC(=O)[C@H](C)NC(=O)[C@H](CCC(=O)O)NC(=O)[C@H](CC(=O)O)NC1=O)NC(=O)[C@H](C)NC(=O)[C@H](CC(=O)O)NC2=O (stereo partly drawn) [I-421] show?
Result: 2.087

* * *

SYSTEM TESTED: full-length beta-Catenin (Uniprot ID P35222) (Homo sapiens, UniProt P35222)
Construct: 10 nM full-length beta-Catenin (Uniprot ID P35222)
Sequence (P35222 whole entry): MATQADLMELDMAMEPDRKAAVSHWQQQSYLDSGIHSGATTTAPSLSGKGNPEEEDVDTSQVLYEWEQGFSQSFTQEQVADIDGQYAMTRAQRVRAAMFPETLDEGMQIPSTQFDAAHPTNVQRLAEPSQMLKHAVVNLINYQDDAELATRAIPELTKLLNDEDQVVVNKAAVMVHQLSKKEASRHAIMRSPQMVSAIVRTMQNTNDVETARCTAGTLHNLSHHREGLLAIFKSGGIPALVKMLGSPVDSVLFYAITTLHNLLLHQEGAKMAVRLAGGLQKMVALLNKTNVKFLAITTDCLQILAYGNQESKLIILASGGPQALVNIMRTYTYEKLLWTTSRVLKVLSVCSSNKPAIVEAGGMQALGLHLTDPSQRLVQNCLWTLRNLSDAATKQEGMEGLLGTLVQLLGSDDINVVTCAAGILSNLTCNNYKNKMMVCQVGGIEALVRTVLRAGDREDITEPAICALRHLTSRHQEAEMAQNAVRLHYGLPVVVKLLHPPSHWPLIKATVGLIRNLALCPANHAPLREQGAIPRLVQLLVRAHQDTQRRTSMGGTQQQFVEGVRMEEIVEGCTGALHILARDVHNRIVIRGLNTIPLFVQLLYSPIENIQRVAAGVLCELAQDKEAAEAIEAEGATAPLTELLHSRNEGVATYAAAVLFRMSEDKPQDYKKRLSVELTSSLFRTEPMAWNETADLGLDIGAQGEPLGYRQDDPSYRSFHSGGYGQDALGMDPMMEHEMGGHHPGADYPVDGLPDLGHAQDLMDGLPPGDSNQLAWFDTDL
PROTOCOL DETAILS: Fluorescence polarization IC50 (beta-catenin / 5FAM-TCF4 10-53 competition)
Type: binding
CONDITION CONTEXT: beta-Catenin FP IC50 (nM), fluorescence polarization
MEASUREMENT TYPE: IC50 (nM)
Kindly provide the numeric value in nM only, without the unit symbol.

Q: Consider the compound shown here: CC(C)C[C@@H]1NC(=O)[C@H](Cc2ccccc2)NC(=O)[C@H](C)NC(=O)[C@H](C)NC(=O)[C@H](Cc2cccc(C(=O)O)c2)NC(=O)[C@H](CC(=O)O)NC(=O)C2(CCCC=CCCCOC(=O)N3CC[C@@](C(=O)N[C@@H](Cc4ccccc4Cl)C(=O)N[C@@H](Cc4csc5ccccc45)C(=O)N[C@@H](C)C(N)=O)(C3)NC1=O)CCCC=CC[C@]1(CCCN1C(=O)Oc1ccccc1)C(=O)N[C@@H](CC(=O)O)C(=O)N[C@@H](CC(C)(C)C)C(=O)N2 (stereo partly shown) What is its recorded IC50?
Result: 376
